- study_system: SARS-CoV-2 spike protein bearing furin mutation and truncation in retention sequence, on pseudoviral particles (SARS-CoV-2, UniProt P0DTC2 14-1255)
- method: cell-based or functional assay
Response field label: string, one of Criterion met (PV neutralisation IC50 strictly below 0.8 nM) or Criterion not met.

binder | label
YANG-1112 (antibody, V domains shown) VH: QITLKESGPTLVKPTQTLTLTCTFSGFSLSTGGVAVGWIRQPPGKALEWLAIIYWDDDKRYSPSLKSRLTITKDTSKNQVVLTMTNMDPVDTATYYCAHWGKDSFDIWGQGTMVTVSS VL: SYELTQPPSVSVSPGQTARITCSGDALPRKYAYWYQQKSGQAPVLVIYEDNNRPSGIPERFSGSSSGTTATLTVSGAQVEDEADYYCYSTDTSGYVVFGGGTKLTVL | Criterion met
YANG-1118 (antibody, V domains shown) VH: EVQLVESGGGLVKPGGSLRLSCAASGFTFSSYALNWVRQAPGKGLEWVSSISTGSSYIFYADSVKGRFTISRDNAKHSLSLQMNSLRAEDTAVYYCAKTGDLPFFDYWGQGTLVTVSS VL: QSALTQPASVSGSPGQSITISCTGTSSDVGRYNYVSWYQQHPGKAPKLMIYEVSNRPSGVSNRFSGSKSGNTASLTISGLQAEDEADYYCISYTSSSTMVFGGGTKLTVL | Criterion met
YANG-1109 (antibody, V domains shown) VH: EVQLVESGGGLIQPGGSLRLSCGVSGLTVSRNYMNWVRQAPGKGLEWVSVIYSGGSTFYADSVKGRFTISRDNSKNTLYLQMISLRAEDSGVYYCAREGFGMDVWGQGTTVTVSS VL: DIQLTQSPSFLSASVGDRVTITCWASQGISNYLAWYQQKPGKAPKLLIYSASTLQSGVPSRFSGSGSGTEFTLTISNLQPADIATYYCQLLNSHPCSFGQGTKLEIK | Criterion not met
YANG-1102 (antibody, V domains shown) VH: QVQLQESGPGLVKPSGTLSLTCAVSGGSISTTNWWSWVRQSPGRGLEWIGEIFHIGYTNYNPSLKSRVTISVDKSKNQFSLKLNSVTVADTAVYYCARRVVMDTAMAHFDCWGQGTLVTVSS VL: QSVLTQPPSVSGAPGQRVTISCTGSSSNIGAGYDVHWYQHLPGTAPKLLIYININRPSGVPDRFSGSKSGTSASLVIAGLQAEDGADYYCQSYDSSLSGWVFGGGTRLTVL | Criterion not met
YANG-1111 (antibody, V domains shown) VH: EVQLVESGGGLIQPGGSLRLSCAASGFTFSSYSINWVRQAPGKGLEWVSFISGSSTTIYYADSVKGRFTISRDSAKNSLYLQMNSLRDEDTAVYYCARGLRSSIAPRPDYFDSWGQGILVTVSS VL: SYVLTQPPSVSVAPGKTARITCGGNNIGSKGVHWYQQKPGQAPVLVIYYDSDRPSGIPERFSGSNSGNTATLTISRVEAGDEADYSCQVWDSSSDHPVFGGGTKLTVQ | Criterion not met
YANG-1103 (antibody, V domains shown) VH: EVQMVESGGGLIQPGGSLRLSCAASGLTVSSNYMSWVRQAPGKGLEWVSVIYSGGSTFYADSVKDRFTISRDNSKNTLYLQMNSLRAEDTAVYYCARENWNYVFDCWGQGTLVTVSS VL: DIQLTQSPSFLSASVGDRVTITCWASQGISSYLAWYQQKPGKAPKLLIYAASTLQSGVPSRFSGSGSGTEFTLTISSLQPEDFATYYCQQLNSHPIIFGQGTRLEIK | Criterion met
YANG-1119 (antibody, V domains shown) VH: EVQLVESGGGLVKPGGSLRLSCAASGFTFSSYSMNWVRQAPGKGLEWVSSISTGSSYIFYADSVKGRFTISRDNAKNSLYLQMNSLRAEDTAVYYCAKTGDLPFFDYWGQGTLVTVSS VL: QSALTQPASVSGSPGQSITISCTGTSSDVGRYNYVSWYQQHPGKAPKLMIYEVSNRPSGVSNRFSGSKSGNTASLTISGLQAEDEADYYCSSYTSSSTMVFGGGTKLTVL | Criterion not met
